# merged literature set: pKi with Histamine H4 receptor (Homo sapiens, UniProt Q9H3N8)
Numbers only, as −log10 of the molar value.

See these solved cases before continuing.
CN1C[C@@H]2CN(C(=N)c3nc4cc(F)ccc4[nH]3)C[C@@H]2C1 ... 8.22
Nc1nccc(NCCNc2nc(N)nc3c2CCCC32CCCC2)n1 ... 8.13
CN1C[C@@H]2CN(C(=O)c3nc4cc(F)ccc4[nH]3)C[C@@H]2C1 ... 7.09
CC(C)(C)n1ncc2c1CCCc1c-2nc(N)nc1N1CC2CCCNC2C1 (stereo not drawn) ... 7.36

Hey, quick one: what's pKi for each of these?
1. CN1C[C@@H]2CN(C(=O)c3cc4cccc(F)c4[nH]3)C[C@@H]2C1
2. CN1C[C@@H]2CN(C(=O)c3cc4cc(F)ccc4[nH]3)C[C@@H]2C1
3. CN1CCN(c2nc(N)nc3c2CCc2nn(-c4ccccc4)nc2-3)CC1
4. Cc1ccc2[nH]c(C(=O)N3C[C@H]4CN(C)C[C@H]4C3)cc2c1
5. Nc1nccc(NCCNc2cc(/C=C/c3ccccc3)nc(N)n2)n1
6. Cc1cccc2nc(C(=N)N3C[C@H]4CN(C)C[C@H]4C3)[nH]c12
7. CN1C[C@@H]2CN(C(=O)c3nc4ccc(F)c(F)c4[nH]3)C[C@@H]2C1
8. Nc1nc2c(c(N3CC[C@@H](N)C3)n1)CCCc1sccc1-2

1: 7.70; 2: 7.70; 3: 5.89; 4: 7.08; 5: 7.70; 6: 8.15; 7: 7.17; 8: 8.00

Hey, quick one: what's pKi for each of these?
1. CN1C[C@@H]2CN(C(=O)c3nc4c(F)c(F)c(F)cc4[nH]3)C[C@@H]2C1
2. CN1C[C@@H]2CN(C(=N)c3nc4cccc(F)c4[nH]3)C[C@@H]2C1
3. CN1C[C@@H]2CN(C(=O)c3nc4ccccc4[nH]3)C[C@@H]2C1

7.00
7.62
7.04

Hey, quick one: what's pKi for each of these?
1. CN1C[C@@H]2CN(C(=O)c3cc4cc(O)ccc4[nH]3)C[C@@H]2C1
2. Cc1c(F)ccc2nc(C(=O)N3C[C@H]4CN(C)C[C@H]4C3)[nH]c12
3. Cc1c(F)ccc2nc(C(=N)N3C[C@H]4CN(C)C[C@H]4C3)[nH]c12

1. 7.55
2. 7.28
3. 8.40
